# Study System: Protein deacetylase HDAC6 (Homo sapiens) (UniProt Q9UBN7)
# Sequence (whole entry): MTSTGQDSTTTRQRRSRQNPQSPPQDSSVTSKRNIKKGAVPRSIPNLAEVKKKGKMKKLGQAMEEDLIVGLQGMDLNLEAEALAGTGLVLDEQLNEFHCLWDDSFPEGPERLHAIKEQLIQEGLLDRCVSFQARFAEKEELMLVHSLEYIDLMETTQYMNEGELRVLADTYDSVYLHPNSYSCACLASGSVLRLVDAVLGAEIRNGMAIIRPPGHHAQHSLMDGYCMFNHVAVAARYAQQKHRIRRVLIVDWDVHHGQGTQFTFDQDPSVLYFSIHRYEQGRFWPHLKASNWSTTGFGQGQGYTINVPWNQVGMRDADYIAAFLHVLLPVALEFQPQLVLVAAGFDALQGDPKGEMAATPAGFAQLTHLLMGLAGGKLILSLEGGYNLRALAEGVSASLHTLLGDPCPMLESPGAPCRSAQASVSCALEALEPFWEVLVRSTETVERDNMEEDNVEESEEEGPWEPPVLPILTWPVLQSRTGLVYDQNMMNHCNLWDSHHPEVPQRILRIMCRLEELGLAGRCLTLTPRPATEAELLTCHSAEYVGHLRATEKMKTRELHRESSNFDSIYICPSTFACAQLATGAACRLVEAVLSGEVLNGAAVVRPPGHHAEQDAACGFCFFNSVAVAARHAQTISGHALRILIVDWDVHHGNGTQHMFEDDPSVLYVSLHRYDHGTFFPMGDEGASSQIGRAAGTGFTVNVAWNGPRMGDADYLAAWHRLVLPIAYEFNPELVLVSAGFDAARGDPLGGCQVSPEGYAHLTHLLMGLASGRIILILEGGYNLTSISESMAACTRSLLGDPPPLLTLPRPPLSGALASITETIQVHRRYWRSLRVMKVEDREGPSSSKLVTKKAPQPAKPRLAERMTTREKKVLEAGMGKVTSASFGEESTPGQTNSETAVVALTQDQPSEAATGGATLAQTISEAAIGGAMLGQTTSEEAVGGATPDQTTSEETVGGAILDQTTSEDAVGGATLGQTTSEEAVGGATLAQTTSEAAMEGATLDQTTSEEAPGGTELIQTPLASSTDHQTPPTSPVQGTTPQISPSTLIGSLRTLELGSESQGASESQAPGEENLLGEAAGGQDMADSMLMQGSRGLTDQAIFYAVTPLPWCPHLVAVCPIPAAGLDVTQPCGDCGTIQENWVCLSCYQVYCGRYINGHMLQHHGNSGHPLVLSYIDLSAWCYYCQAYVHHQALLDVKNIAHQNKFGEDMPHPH
# Assay Comment: Inhibition of recombinant human HDAC6 at 10 uM using fluorogenic HDAC substrate 3 by fluorescence assay relative to control
Readout Type: inhibition (%)

Guide cases for inhibition, answers given:
O=C(CN1CCc2ccccc2C1c1ccccc1)NO (centres undefined)    17
O=C(CCN1CCc2ccccc2C1C1CCCCC1)NO (centres undefined)    32
O=C(CCCCN1CCc2ccccc2C1c1ccccc1)NO (centres undefined)    93
O=C(CCN1CCc2ccccc2C1)NO    31
O=C(CCN1CCc2ccccc2C1c1ccc(-c2ccccc2)cc1)NO (centres undefined)    39

a = CC(C)(C)c1ccc(C2c3ccccc3CCN2CCC(=O)NO)cc1 (centres undefined)
b = COc1ccc(C2c3ccccc3CCN2CCC(=O)NO)cc1 (centres undefined)
c = O=C(CCCCCCN1CCc2ccccc2C1)NO
**Query** Rank the 3 molecules: largest inhibition first, smallest last. Ranked list of labels, please, in the requested order.
**Result** c, a, b
(c: 97%, a: 30%, b: 21%)

P = COc1cccc(C2c3ccccc3CCN2CCC(=O)NO)c1 (centres undefined)
Q = O=C(CCN1CCc2ccccc2C1c1ccc2ccccc2c1)NO (centres undefined)
**Query** Looking only at measured inhibition, which entry is lower, P or Q ? Your answer should be the label attached to the chosen record.
**Result** P
(P: 27%, Q: 74%)

A = O=C(CCN1CCc2ccccc2C1c1ccc(C(F)(F)F)cc1)NO (centres undefined)
B = O=C(CCN1CCc2ccccc2C1c1cccc(C(F)(F)F)c1)NO (centres undefined)
**Query** Which value of inhibition is greater, the one for A or the one for B ? Your answer should be the label attached to the chosen record.
**Result** A
(A: 26%, B: 17%)

a = O=C(CCN1CCc2ccccc2C1c1ccccc1)NO (centres undefined)
b = CCOc1ccc(C2c3ccccc3CCN2CCC(=O)NO)cc1 (centres undefined)
**Query** Which value of inhibition is greater, the one for a or the one for b ? Your answer should be the label attached to the chosen record.
**Result** a
(a: 35%, b: 5.7%)
